Values were extracted from patent US12583820B2.

Consider the following CC50 values measured on HG23 cells.
Please give a number only; it is taken to be in µM.

[
  {
    "compound": "CC(C)(COC(=O)N[C@@H](CC1CCCCC1)C(=O)N[C@H](C=O)C[C@@H]1CCNC1=O)c1cccc(Cl)c1 [Compound 5d (Scheme 2)]",
    "quantitative_readout": 13.3
  },
  {
    "compound": "O=C(N[C@@H](CC1CCCCC1)C(=O)N[C@@H](C[C@@H]1CCNC1=O)C(O)S(=O)(=O)O)OC/C=C/c1cccc(Cl)c1 (some centres unmarked) [Compound 6s]",
    "quantitative_readout": 28.3
  },
  {
    "compound": "O=C[C@H](C[C@@H]1CCNC1=O)NC(=O)[C@H](CC1CCCCC1)NC(=O)OCCCc1cccc(Cl)c1 [Compound 5j (Example 5)]",
    "quantitative_readout": 30.3
  }
]

Turning now to a further record.
### Prompt What CC50 value was documented for this compound, CC(C)(Cc1cccc(Cl)c1)OC(=O)N[C@@H](CC1CCCCC1)C(=O)N[C@H](C=O)C[C@@H]1CCNC1=O [Compound 5h (Scheme 2)] ?
### Response 15.6
